A collection of sequences and their measured self-splicing fitness (ln)
- Test Protocol: self-splicing fitness, log relative to wild type (ln ratio); higher = more splicing; Tetrahymena group I intron in knt gene, E. coli kanamycin selection, DiMSum; sequences stand for … in CUCUCU…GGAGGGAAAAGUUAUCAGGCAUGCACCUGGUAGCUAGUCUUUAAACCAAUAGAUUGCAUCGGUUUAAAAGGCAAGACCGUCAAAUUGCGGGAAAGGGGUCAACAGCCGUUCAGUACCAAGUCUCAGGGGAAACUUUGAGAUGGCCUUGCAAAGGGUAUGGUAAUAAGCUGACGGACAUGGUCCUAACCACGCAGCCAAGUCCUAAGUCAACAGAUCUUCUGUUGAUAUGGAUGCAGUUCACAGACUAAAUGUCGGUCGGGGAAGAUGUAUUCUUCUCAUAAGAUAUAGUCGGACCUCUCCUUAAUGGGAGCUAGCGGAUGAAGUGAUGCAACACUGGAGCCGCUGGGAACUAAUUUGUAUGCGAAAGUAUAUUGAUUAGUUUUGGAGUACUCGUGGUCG;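 further: selection with 25 µg/mL kanamycin versus none on LB agar overnight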
- Measurement Parameters: 30 °C
Respond numerically, and do not add a unit to the figure.

Look over these answered cases.
GGUCAGCAAUAUUACGCUAA
-1.1
CUCUAGCAAUAUUACGCUAA
-2.65
CAUCAGCAAUAUUACGCGGA
-3.61
ACCUAGCAAUAUUACGUGCU
-2.56
GAUUAGCAAUAUUACGCGCG
-1.03
CGCUAGCAAUAUUACGAGGC
-3.54
UGAGAGCAAUAUUACGUCAC
-2.08
GUAGAGCAAUAUUACGUUGA
-2.98

IN: Entry GACGAGCAAUAUUACGCGAC : reported self-splicing fitness (ln) = ?
OUT: -2.09

IN: Now give it for GAAAAGCAAUAUUACGAGUC too.
OUT: -2.16

---

- Test Protocol: self-splicing fitness, log relative to wild type (ln ratio); higher = more splicing; Tetrahymena group I intron in knt gene, E. coli kanamycin selection, DiMSum; sequences stand for … in CUCUCU…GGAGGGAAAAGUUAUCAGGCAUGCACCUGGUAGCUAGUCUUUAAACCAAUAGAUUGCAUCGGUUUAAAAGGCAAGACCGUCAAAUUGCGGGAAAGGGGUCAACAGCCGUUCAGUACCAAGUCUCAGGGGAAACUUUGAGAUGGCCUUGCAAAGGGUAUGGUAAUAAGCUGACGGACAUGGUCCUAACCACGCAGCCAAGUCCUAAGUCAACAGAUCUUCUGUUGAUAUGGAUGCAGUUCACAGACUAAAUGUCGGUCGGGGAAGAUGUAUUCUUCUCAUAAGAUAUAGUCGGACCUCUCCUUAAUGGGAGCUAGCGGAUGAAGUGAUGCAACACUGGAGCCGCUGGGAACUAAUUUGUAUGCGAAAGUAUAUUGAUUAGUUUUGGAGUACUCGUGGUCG
- Measurement Parameters: 30 °C
Readout: self-splicing fitness (ln)

Reference set (8 entries):
CUCCAGCAAUAUUACGAACU
-2.92
AGUCAGCAAUAUUACGGGGA
-3.08
AUUUAGCAAUAUUACGAAAA
-1.99
UGGAAGCAAUAUUACGCGGA
-1.17
GCGUAGCAAUAUUACGCGGC
-2.64
GAGUAGCAAUAUUACGACGA
-0.0886
CUUGAGCAAUAUUACGUCAG
-1.6
GAGCAGCAAUAUUACGGCGC
-0.751

IN: Name the reported self-splicing fitness (ln) value associated with the sequence CUCAAGCAAUAUUACGGUCC
OUT: -3.02

IN: Now give it for AAAGAGCAAUAUUACGUAAG too.
OUT: -3.48

IN: Query GAUUAGCAAUAUUACGGUAU next
OUT: -1.75

---

- Test Protocol: self-splicing fitness, log relative to wild type (ln ratio); higher = more splicing; Tetrahymena group I intron in knt gene, E. coli kanamycin selection, DiMSum; sequences stand for … in CUCUCU…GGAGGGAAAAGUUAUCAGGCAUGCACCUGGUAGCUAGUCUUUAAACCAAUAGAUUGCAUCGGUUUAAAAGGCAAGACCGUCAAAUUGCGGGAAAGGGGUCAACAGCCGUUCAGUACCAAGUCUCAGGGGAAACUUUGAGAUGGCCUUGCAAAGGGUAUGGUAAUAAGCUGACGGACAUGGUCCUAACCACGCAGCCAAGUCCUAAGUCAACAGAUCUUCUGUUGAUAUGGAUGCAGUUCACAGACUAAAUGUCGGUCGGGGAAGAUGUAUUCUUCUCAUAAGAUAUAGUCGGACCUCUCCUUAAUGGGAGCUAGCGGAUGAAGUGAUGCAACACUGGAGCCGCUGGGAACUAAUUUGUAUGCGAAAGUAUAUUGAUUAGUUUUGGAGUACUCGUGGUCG
- Measurement Parameters: 37 °C
Listing of entries alongside the reported self-splicing fitness (ln).
# print the numeric value only

Solved entries:
AGGAAGCAAUAUUACGUUAA
-1.72
CUUAAGCAAUAUUACGCUUU
-2.26

IN: Fill blank: measured self-splicing fitness (ln) of the sequence GACCAGCAAUAUUACGGCUC is ____.
OUT: 0.658

IN: Input UAACAGCAAUAUUACGUUUU
OUT: -1.7

IN: Input GCUGAGCAAUAUUACGGCCA
OUT: -1.9

IN: For AGGCAGCAAUAUUACGUUAU then?
OUT: -1.78

IN: Check GCACAGCAAUAUUACGAUAG too.
OUT: -1.14

IN: How about this sequence: GCUCAGCAAUAUUACGGAAG
OUT: -0.736

IN: Okay, and AGUGAGCAAUAUUACGACGG ?
OUT: -0.814

IN: # repeat for AACAAGCAAUAUUACGUCGC
OUT: -2.21

IN: One more sequence: GUUUAGCAAUAUUACGUAUU
OUT: -1.38

IN: Input GCUUAGCAAUAUUACGCUGA
OUT: -3.37

IN: Another: CGGCAGCAAUAUUACGGGCA
OUT: -0.644

IN: Consider next the sequence AGCUAGCAAUAUUACGUGUC in the same way.
OUT: -1.63

IN: Also UCAUAGCAAUAUUACGCAAG , if possible.
OUT: -2.04

---

- Test Protocol: self-splicing fitness, log relative to wild type (ln ratio); higher = more splicing; Tetrahymena group I intron in knt gene, E. coli kanamycin selection, DiMSum; sequences stand for … in CUCUCU…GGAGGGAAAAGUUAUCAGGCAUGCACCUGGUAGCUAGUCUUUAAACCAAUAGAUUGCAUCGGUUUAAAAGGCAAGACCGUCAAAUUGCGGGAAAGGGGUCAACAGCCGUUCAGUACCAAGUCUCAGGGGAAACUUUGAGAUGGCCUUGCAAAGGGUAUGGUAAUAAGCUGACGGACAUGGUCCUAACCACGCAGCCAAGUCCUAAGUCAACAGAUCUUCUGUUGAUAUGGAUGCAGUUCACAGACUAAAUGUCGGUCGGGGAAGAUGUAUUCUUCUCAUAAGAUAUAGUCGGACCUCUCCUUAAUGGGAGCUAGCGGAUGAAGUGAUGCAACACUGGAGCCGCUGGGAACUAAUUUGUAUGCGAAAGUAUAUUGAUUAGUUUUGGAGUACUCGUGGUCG
- Measurement Parameters: 30 °C
Catalogue of self-splicing fitness (ln) readings, one per entry.

Consider the worked cases shown below.
CCACAGCAAUAUUACGGAAG
-1.87
ACCGAGCAAUAUUACGACGG
-2.24
ACCAAGCAAUAUUACGCUUC
-3.27

IN: // lookup self-splicing fitness (ln) for UUCGAGCAAUAUUACGAUUU
OUT: -4.18

---

- Test Protocol: self-splicing fitness, log relative to wild type (ln ratio); higher = more splicing; Tetrahymena group I intron in knt gene, E. coli kanamycin selection, DiMSum; sequences stand for … in CUCUCU…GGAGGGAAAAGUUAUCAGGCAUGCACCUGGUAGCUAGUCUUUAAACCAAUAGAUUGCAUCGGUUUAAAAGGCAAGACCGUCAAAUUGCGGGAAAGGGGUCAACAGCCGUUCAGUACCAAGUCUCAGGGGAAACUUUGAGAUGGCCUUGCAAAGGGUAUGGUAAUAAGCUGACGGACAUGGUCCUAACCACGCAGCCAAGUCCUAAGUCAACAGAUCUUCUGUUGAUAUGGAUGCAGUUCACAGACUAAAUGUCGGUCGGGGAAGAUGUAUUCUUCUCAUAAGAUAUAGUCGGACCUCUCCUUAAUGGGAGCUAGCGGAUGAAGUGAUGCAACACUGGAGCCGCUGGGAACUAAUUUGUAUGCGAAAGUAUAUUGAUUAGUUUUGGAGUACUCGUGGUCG
- Measurement Parameters: 30 °C
Output True for self-splicing fitness (ln) not less than -2; output False otherwise.

CCGCAGCAAUAUUACGAGCC
False

IN: Record CUUCAGCAAUAUUACGAAUC ; criterion: self-splicing fitness (ln) no lower than -2. Met?
OUT: True

IN: Would you kindly repeat that for AGUAAGCAAUAUUACGAACG ?
OUT: True

These measurements were taken from the supplement of paper PMC7877785.
